Each entry below lists one item and its recorded IC50 value.
target: UniProt:Q194T2; format: functional, Influenza A virus (A/California/07/2009(H1N1))
Sequence (Q194T2 whole entry): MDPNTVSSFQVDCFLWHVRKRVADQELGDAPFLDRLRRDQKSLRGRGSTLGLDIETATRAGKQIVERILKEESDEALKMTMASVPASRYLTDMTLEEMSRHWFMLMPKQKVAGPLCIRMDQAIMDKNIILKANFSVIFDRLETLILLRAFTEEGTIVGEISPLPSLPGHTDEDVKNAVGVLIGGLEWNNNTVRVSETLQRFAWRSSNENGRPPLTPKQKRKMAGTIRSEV
The source made the active and inactive calls.
metric name: IC50

>>> print(df.to_string())
                                   molecule       assay_result
0             Oc1ccc(C=NNC(=S)Nc2cccnc2)nc1  0.992 µM (active)
1  CCOc1ccc(-c2nc(CSCC(=O)N3CCN(c4cccc(OC)c4)CC3)c(C)o2)cc1  > 100 µM (active)
2                     Cc1ccc2ccc3cccnc3c2n1   14.5 µM (active)
3  COc1ccc(C2C3=C(CC(C)(C)CC3=O)Oc3ncn(Cc4ccco4)c(=N)c32)cc1 (stereo unspecified)  > 100 µM (active)
4  CC(N/N=C(\S)N1CCN(c2ccccn2)CC1)c1nccc2ccccc12 (stereo unspecified)   2.43 µM (active)
5  CC[n+]1c(/C=C/C=C/c2ccc(N(C)C)cc2)sc2ccccc21.[O-][Cl+3]([O-])([O-])[O-]   5.05 µM (active)

----------
target: Low molecular weight phosphotyrosine protein phosphatase (Homo sapiens, UniProt P24666); format: functional; conditions: read-out: IC50_Mean;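 further: Dose-response confirmation assay measuring inhibition of LMPTP enzyme activity by fluorescence intensity read-out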
Sequence (P24666 whole entry): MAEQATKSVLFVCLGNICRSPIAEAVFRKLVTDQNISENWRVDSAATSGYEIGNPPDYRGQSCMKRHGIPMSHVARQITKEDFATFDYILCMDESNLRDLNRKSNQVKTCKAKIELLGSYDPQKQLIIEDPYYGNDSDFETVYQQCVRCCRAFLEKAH
Calls of active or inactive are those of the source.
Outcome codes: active, inactive

>>> print(df.to_string())
                                        mol       cat
0  COc1ccc(-c2cc(C(=O)Nc3cc(Br)ccc3O)no2)cc1    active
1         FC(F)(F)c1ccc(Nc2nnnc3ccccc23)cc1    active
2    C(=C\c1nc(N2CCCC2)c2ccccc2n1)/c1ccccc1    active
3  O=C(CCCOc1ccc(Cl)cc1Cl)NNC(=O)c1ccc(NC(=O)c2ccccc2)cc1    active
4  Nc1c(C(=O)N/N=C/c2ccc(OCc3ccccc3)cc2)cnn1-c1ccccc1  inactive
5  O=c1cc(CSc2nc(NCc3ccccc3)c3ccccc3n2)nc2ccc(Cl)cn12  inactive

----------
test: Luminescence Cell-Based Dose Confirmation HTS to Identify Inhibitors of Platelet Dense Granule Release. [Related pubchem assays: 1663 (Primary HTS), 1678 (Summary of Project)]; format: functional
Calls of active or inactive are those of the source.
Listing of entries alongside the reported EC50.
metric name: EC50

>>> print(df.to_string())
                                        mol           assay_result
0  Cc1c(C(c2cccc([N+](=O)[O-])c2O)c2c(C)n(C)n(-c3ccccc3)c2=O)c(=O)n(-c2ccccc2)n1C  > 112 µM (not active)
1      CCCCC(=O)Nc1cccc(NC(=O)c2ccccc2Br)c1        6.9 µM (active)
2    COc1ccccc1NC(=O)c1cc2ccc(O)cc2o/c1=N\O       6.14 µM (active)
3  Cc1cc(=O)oc(C)c1C(=O)NCCNC(=O)c1c(C)cc(=O)oc1C       28.8 µM (active)
4          CCOc1ccccc1NC(=O)COC(=O)Cc1cccs1  > 112 µM (not active)

----------
target: Troponin, cardiac muscle (Homo sapiens, UniProt P19429+P45379+P63316); test: Fluorescence-based biochemical high throughput dose response assay for activators of the calcium sensitivity of cardiac Regulated Thin Filaments (RTF). [Related pubchem assays (depositor defined):AID493008, AID493018, AID504382, AID504383]; assay type: protein-complex assay
Activity calls are given as the source filed them.
Overview of recorded EC50 for various molecules
metric name: EC50

>>> print(df.to_string())
                                   molecule                               test_system  metric_name          assay_result
0  CC(C)CN1CCN(Cc2cccn2-c2ccc(Cl)cn2)CC1CCO (centres undefined)  Troponin, cardiac muscle (Homo sapiens, UniProt P19429+P45379+P63316)         EC50  > 71.5 µM (inactive)
1  CNC(=O)N(O)C1N(C)C(=O)N(CC(=O)OC)C1(C)C (centres undefined)  Troponin, cardiac muscle (Homo sapiens, UniProt P19429+P45379+P63316)         EC50  > 71.5 µM (inactive)
2  CC(=O)N1CCc2c(sc(NC(=O)C3CCCN3S(=O)(=O)c3cccs3)c2C(N)=O)C1 (centres undefined)  Troponin, cardiac muscle (Homo sapiens, UniProt P19429+P45379+P63316)         EC50    18.5 µM (inactive)
3  CN(CC(=O)NCc1ccco1)S(=O)(=O)c1cccc2cccnc12  Troponin, cardiac muscle (Homo sapiens, UniProt P19429+P45379+P63316)         EC50  > 71.5 µM (inactive)

----------
Lab note: AC50 readings collected with Cytochrome P450 1A2 (Homo sapiens, UniProt P05177) for the following molecules.
Sequence (P05177 whole entry): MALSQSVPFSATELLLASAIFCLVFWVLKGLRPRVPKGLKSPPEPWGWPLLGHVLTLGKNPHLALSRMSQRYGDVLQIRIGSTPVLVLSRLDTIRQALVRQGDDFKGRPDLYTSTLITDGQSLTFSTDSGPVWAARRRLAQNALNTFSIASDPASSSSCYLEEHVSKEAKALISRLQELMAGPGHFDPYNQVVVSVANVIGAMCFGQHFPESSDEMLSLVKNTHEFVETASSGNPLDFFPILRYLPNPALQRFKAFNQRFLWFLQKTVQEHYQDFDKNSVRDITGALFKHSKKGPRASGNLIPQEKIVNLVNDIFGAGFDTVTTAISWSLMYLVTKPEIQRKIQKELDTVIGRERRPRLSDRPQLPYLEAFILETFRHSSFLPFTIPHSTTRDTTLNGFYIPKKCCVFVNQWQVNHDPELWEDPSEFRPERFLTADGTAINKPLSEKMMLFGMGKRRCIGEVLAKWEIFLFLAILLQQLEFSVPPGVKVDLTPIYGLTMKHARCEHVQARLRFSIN
metric name: AC50

>>> df
                                   molecule  metric_name             assay_result
0  CCOc1nn(-c2ccc(Cl)cc2)c(O)c1/C=N/c1ccc(O)cc1         AC50   3.55 µM (inconclusive)
1  COc1ccc(NC(=O)N2CCC3(CC2)CCN(C(=O)c2cnccn2)CC3)cc1         AC50     10 µM (inconclusive)
2  CCc1ccccc1N1C(=O)c2cccc3c(N4CCOCC4)c([N+](=O)[O-])cc(c23)C1=O         AC50     10 µM (inconclusive)
3  CCOC(=O)/C(C#N)=C1/SC(CC)C(=O)N1c1ccc(Br)cc1 (stereo not given)         AC50   31.6 µM (inconclusive)
4        O=C(CSc1nc2ccccc2[nH]1)NCCN1CCCCC1         AC50  0.316 µM (inconclusive)
5  O=C(N/N=C\c1ccc(-c2ccccc2[N+](=O)[O-])o1)C1COc2cc3ccccc3cc2O1 (stereo not given)         AC50   3.55 µM (inconclusive)
6  CC1=C/C(=C(/c2ccc(O)c(C)c2)c2ccccc2C(=O)O)C=CC1=O         AC50   3.16 µM (inconclusive)
7  Cc1c(C(c2cccc([N+](=O)[O-])c2O)c2c(C)n(C)n(-c3ccccc3)c2=O)c(=O)n(-c2ccccc2)n1C         AC50   15.8 µM (inconclusive)
8             CNCC[C@H](Oc1ccccc1C)c1ccccc1         AC50   15.8 µM (inconclusive)
9  Cn1c(=O)cc(SCC(=O)NCCN2CCN(c3ccccc3F)CC2)c2cc(Cl)ccc21         AC50   39.8 µM (inconclusive)

----------
target: Streptokinase A (Streptococcus pyogenes serotype M1); assay: viability-normalized secreted streptokinase activity reduction – plasminogen activation absorbance, OD405, dose response (AID 1914); type: functional, Streptococcus pyogenes M1 GAS;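 further: secreted streptokinase activity via plasminogen activation per viability signal from cell pellet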
Sequence (P10520 whole entry): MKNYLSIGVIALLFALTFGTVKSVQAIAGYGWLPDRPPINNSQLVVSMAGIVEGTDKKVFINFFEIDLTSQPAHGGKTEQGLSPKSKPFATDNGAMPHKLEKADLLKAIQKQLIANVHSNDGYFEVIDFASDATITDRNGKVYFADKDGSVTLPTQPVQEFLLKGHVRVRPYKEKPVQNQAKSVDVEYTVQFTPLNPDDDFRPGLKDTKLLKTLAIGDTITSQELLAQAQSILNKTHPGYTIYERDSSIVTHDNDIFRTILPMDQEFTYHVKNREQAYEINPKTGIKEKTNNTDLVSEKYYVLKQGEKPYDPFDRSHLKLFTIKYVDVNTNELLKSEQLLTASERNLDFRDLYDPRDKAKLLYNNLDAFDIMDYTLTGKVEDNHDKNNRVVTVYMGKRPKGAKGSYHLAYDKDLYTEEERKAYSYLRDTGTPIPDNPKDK
Active and inactive are the calls of the source.
EC50 values, listed per item
metric name: EC50

>>> df
                                   compound  metric_name           assay_result
0  Cc1ccc(CN=C(S)Nc2ccc(NS(=O)(=O)c3ccc(C)cc3)cc2)cc1         EC50  > 150 µM (not active)
1  CS(=O)(=O)Nc1ccc(C(=O)Nc2ccccc2C(=O)NCc2ccco2)cc1         EC50  > 150 µM (not active)
2  COc1ccc(C2c3ccc(O)cc3Oc3ncn4nc(-c5ccncc5)nc4c32)cc1OC (stereo not given)         EC50  > 150 µM (not active)
3  O=C(NC(=S)N1CCN(c2ccc(F)cc2)CC1)C12CC3CC(CC(C3)C1)C2         EC50  > 150 µM (not active)
4  Cc1ccc(Cl)cc1N1CCN(C(=O)c2cn(C)c(=O)c3c2c2ccccc2n3C)CC1         EC50       9.73 µM (active)

----------
IC50 listing for selected compounds.
target: Genome polyprotein (dengue virus type 2); assay: flavivirus cap methylation enzyme inhibition – biochemical, confirmation dose response, primary screen (AID 588689); assay type: functional
Active and inactive are the calls of the source.
metric name: IC50

>>> df
                                   compound                               test_system       assay_result
0  CC1=NOC(=O)/C1=C\c1ccc(-c2ccc(Cl)c(C(=O)O)c2)o1  Genome polyprotein (dengue virus type 2)   15.3 µM (active)
1  O=C1Nc2ccc(Br)cc2/C1=C1/SC(=S)N(NS(=O)(=O)c2ccccc2)C1=O  Genome polyprotein (dengue virus type 2)   23.6 µM (active)
2  COc1ccc(N2C(=O)C(Cl)=C(N3CCOCC3)C2=O)cc1  Genome polyprotein (dengue virus type 2)   33.1 µM (active)
3  O=C1c2ccccc2C(O)(c2ccccc2)N1c1ccc([N+](=O)[O-])cc1Cl (configuration not stated)  Genome polyprotein (dengue virus type 2)   60.8 µM (active)
4  O=C1NC(=O)C(=Cc2c[nH]nc2-c2ccccc2)C(=O)N1  Genome polyprotein (dengue virus type 2)     53 µM (active)
5  O=C(NCC(c1cccs1)N1CCOCC1)c1ccccc1NS(=O)(=O)c1ccc(Cl)c([N+](=O)[O-])c1 (configuration not stated)  Genome polyprotein (dengue virus type 2)  > 100 µM (active)
6  Cc1noc(NS(=O)(=O)c2ccc(NC(=O)c3ccccc3NS(=O)(=O)c3ccc(F)cc3)cc2)c1C  Genome polyprotein (dengue virus type 2)   40.9 µM (active)
